Experiment: differential killing of epithelial or mesenchymal cells, primary screen, imaging, PC-3E GFP, TEM4-18 mCherry, co-culture (AID 1345086);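 further: cells exposed to compound for 72 h before imaging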
Conditions: imaging cell counts, measured here: epithelial PC-3E GFP cell survival, at 1 µM
List of normalised cell number values.
Answer using only a numeral; do not append any unit.

Use the examples below as a reference point.
Cc1c(S(=O)(=O)O)oc2c1C(=O)C(=O)c1c-2ccc2c1CCCC2(C)C : 1.24
CC1(C)C(C=C(Cl)Cl)C1C(=O)OCc1cccc(Oc2ccccc2)c1 (stereo not given) : 1.23
CC(=O)S[C@@H]1CC2=CC(=O)CC[C@]2(C)[C@H]2CC[C@@]3(C)[C@@H](CC[C@@]34CCC(=O)O4)C12 (stereo not given in full) : 1
C[C@H]1[C@H](OC(=O)CCC(=O)O)O[C@@H]2O[C@]3(C)CC[C@H]4[C@H](C)CC[C@@H]1[C@@]24OO3 : 0.68

Lab note: measured normalised cell number of COc1ccc2oc(-c3ccccc3)c(OC)c(=O)c2c1 was 1.37

Entry CC(=O)c1ccc2c(c1)Sc1ccccc1N2CCCN1CCN(CCO)CC1 — recorded normalised cell number = 1.21

The reported value for OC[C@@H](O)[C@@H](O)[C@H](O)[C@@H](O)CO in terms of normalised cell number is 1.02
